# protocol: Solubility study at different pHs
# Assay type: physicochemical
# condition_notes: thermodynamic from solid; purified water (pH 6.05), 37° C., 24 hrs
endpoint_name: solubility at 24 h (mg/mL)
Value expressed in mg/mL; do not type the unit.

q: Reported solubility at 24 h for CC(C)c1c2cc(-c3nc(Nc4ccc(N5CCNCC5)cn4)ncc3F)ccc2nn1C.O=C(O)/C=C\C(=O)O [A crystal form of compound WX_1] : what is it?
a: 1.22

---

# protocol: Solubility study at different pHs
# Assay type: physicochemical
# condition_notes: thermodynamic from solid; purified water (pH 6.05), 37° C., 4 hrs
# Method: A magnet was added to the above suspension, which was placed on a magnetic stirrer for stirring (temperature 37° C., dark). After respectively stirring for 4 hours and 24 hours, samples were taken and centrifuged, and the residual solids in the lower layers were tested by XRPD. The samples in the upper layers were filtered with a filtration membrane. The concentrations of the filtrates were determined by HPLC and the pHs were measured. […]
endpoint_name: solubility at 4 h (µg/mL)
Output spec: scalar in µg/mL, unitless text.

q: # query: solubility at 4 h of entry CC(C)c1c2cc(-c3nc(Nc4ccc(N5CCNCC5)cn4)ncc3F)ccc2nn1C.O=C(O)/C=C\C(=O)O [A crystal form of compound WX_1]
a: 1110

---

# protocol: Solubility study at different pHs
# Type: physicochemical
# condition_notes: aqueous buffer, thermodynamic from solid; pH 4.5 buffer (pH 4.48), 37° C., 4 hrs
endpoint_name: solubility at 4 h

q: Which solubility at 4 h value is on record for CC(C)c1c2cc(-c3nc(Nc4ccc(N5CCNCC5)cn4)ncc3F)ccc2nn1C.O=C(O)/C=C\C(=O)O [A crystal form of compound WX_1] ?
a: > 2500 µg/mL

---

# protocol: Solubility study at different pHs
# Type: physicochemical
# condition_notes: aqueous buffer, thermodynamic from solid; pH 6.0 buffer (pH 6.04), 37° C., 4 hrs
endpoint_name: solubility at 4 h (µg/mL)
Answer format: numeric, µg/mL implied, no suffix.

q: I have this compound here, CC(C)c1c2cc(-c3nc(Nc4ccc(N5CCNCC5)cn4)ncc3F)ccc2nn1C.O=C(O)/C=C\C(=O)O [A crystal form of compound WX_1] , and I need its recorded solubility at 4 h.
a: 2

---

# protocol: Solubility study at different pHs
# Assay type: physicochemical
# condition_notes: simulated gastric fluid, thermodynamic from solid; 0.01N HCl (pH 1.99), 37° C., 4 hrs
endpoint_name: solubility at 4 h

q: Consider the compound shown here: CC(C)c1c2cc(-c3nc(Nc4ccc(N5CCNCC5)cn4)ncc3F)ccc2nn1C.O=C(O)/C=C\C(=O)O [A crystal form of compound WX_1] What is its recorded solubility at 4 h?
a: > 2500 µg/mL

---

# protocol: Solubility tests in different vehicles (HPLC)
# Format: physicochemical
# condition_notes: 26 °C, simulated gastric fluid, thermodynamic from solid, SGF, room temperature 25 to 27° C., read-out: Solubility SGF
solubility at 24 h by entry:

CC(C)c1c2cc(-c3nc(Nc4ccc(N5CCNCC5)cn4)ncc3F)ccc2nn1C : > 2000 µg/mL

With those in mind, consider the next molecule.
q: For the molecule CC(C)c1c2cc(-c3nc(Nc4ccc(N5CCNCC5)cn4)ncc3F)ccc2nn1C.O=C(O)/C=C\C(=O)O [A crystal form of compound WX_1] , what solubility at 24 h is on record?
a: > 2000 µg/mL
